- Target entity: CRBN and Helios (IKZF2) (Homo sapiens, UniProt Q96SW2+Q9UKS7)
- Construct: His (N); Strep (N)
- Sequence (Q96SW2 whole entry): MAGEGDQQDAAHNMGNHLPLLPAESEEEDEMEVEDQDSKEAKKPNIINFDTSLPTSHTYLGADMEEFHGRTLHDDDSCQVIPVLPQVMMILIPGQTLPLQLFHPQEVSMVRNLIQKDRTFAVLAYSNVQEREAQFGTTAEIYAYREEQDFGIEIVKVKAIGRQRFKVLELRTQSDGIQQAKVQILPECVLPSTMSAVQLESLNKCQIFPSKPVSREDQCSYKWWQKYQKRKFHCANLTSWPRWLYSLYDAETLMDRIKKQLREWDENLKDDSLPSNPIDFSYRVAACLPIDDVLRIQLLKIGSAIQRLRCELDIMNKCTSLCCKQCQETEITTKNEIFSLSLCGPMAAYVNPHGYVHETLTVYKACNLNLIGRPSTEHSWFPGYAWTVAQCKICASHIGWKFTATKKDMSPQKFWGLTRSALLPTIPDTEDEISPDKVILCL
- Sequence (Q9UKS7 whole entry): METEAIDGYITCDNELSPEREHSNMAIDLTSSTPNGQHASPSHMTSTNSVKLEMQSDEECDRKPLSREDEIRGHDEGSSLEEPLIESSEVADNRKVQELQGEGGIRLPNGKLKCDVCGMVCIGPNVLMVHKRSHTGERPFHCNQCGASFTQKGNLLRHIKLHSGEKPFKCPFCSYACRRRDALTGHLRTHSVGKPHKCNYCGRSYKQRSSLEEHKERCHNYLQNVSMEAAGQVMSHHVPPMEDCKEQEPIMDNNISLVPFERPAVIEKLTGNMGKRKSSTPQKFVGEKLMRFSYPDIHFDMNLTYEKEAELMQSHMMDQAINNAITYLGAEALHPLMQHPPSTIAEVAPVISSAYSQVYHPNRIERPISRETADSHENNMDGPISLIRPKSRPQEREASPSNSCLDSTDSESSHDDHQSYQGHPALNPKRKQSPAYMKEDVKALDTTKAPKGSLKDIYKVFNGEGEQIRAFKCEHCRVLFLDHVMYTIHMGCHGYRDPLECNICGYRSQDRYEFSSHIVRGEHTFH
- Assay: TR-FRET dimerization assay (CRBN-IKZF2 ternary complex formation)
- Format: binding
- Experimental context: compound concentration 6.6667E−06; n=1
Reported TR-FRET-IKZF2 (Normalized to CC-885) values are given for each entry in this list.
Enter a number only.

Below, each entry is followed by its recorded TR-FRET-IKZF2 (Normalized to CC-885) result.
O=C(O)CCCCNC1=CC(=O)N(C2CCC(=O)NC2=O)C1=O (stereo not shown) :: 0.032
Cc1ccc(NC(=O)Nc2cccc(NC3=CC(=O)N(C4CCC(=O)NC4=O)C3=O)c2)cc1Cl (stereo not shown) :: 0.353
Cc1ccc(NC(=O)OCCc2cccc(NC3=CC(=O)N(C4CCC(=O)NC4=O)C3=O)c2)cc1Cl (stereo not shown) :: 1.086

For the next question, use this molecule.
Given Cc1ccc(NC(=O)NC(CC(=O)N(C)C)c2cccc(NC3=CC(=O)N(C4CCC(=O)NC4=O)C3=O)c2)cc1Cl (stereo not shown) , state its recorded TR-FRET-IKZF2 (Normalized to CC-885).
1.657

---

- Target entity: CRBN and Helios (IKZF2) (Homo sapiens, UniProt Q96SW2+Q9UKS7)
- Construct: His (N); Strep (N)
- Assay: TR-FRET dimerization assay (CRBN-IKZF2 ternary complex formation)
- Format: binding
- Experimental context: compound concentration 6.6667E−06; n=1
Doc: threshold 0.6 (exclusive). Items with TR-FRET-IKZF2 (Normalized to CC-885) beneath it return yes; others return no.

Use the examples below as a reference point.
O=C1CCC(N2C(=O)C=C(Nc3cccc(-c4nnn[nH]4)c3)C2=O)C(=O)N1 (stereo not shown) :: yes
O=C1CCC(N2C(=O)C=C(Nc3cccc(-c4cc[nH]n4)c3)C2=O)C(=O)N1 (stereo not shown) :: yes
Cc1ccc(CNC(=O)CCc2cccc(NC3=CC(=O)N(C4CCC(=O)NC4=O)C3=O)c2)cc1Cl (stereo not shown) :: no
Cc1ccc(NC(=O)NCCc2cccc(NC3=CC(=O)N(C4CCC(=O)NC4=O)C3=O)c2)cc1C(F)(F)F (stereo not shown) :: no
Cc1ccc(NC(=O)NCc2ccc(NC3=CC(=O)N(C4CCC(=O)NC4=O)C3=O)cc2)cc1Cl (stereo not shown) :: no

Problem: For the compound Cc1ccc(NCc2cccc(NC3=CC(=O)N(C4CCC(=O)NC4=O)C3=O)c2)cc1Cl (stereo not shown) , is TR-FRET-IKZF2 (Normalized to CC-885) under 0.6?
no

Dear colleague, could you confirm whether TR-FRET-IKZF2 (Normalized to CC-885) of Cc1ccc(NC(=O)OCc2cccc(NC3=CC(=O)N(C4CCC(=O)NC4=O)C3=O)c2)cc1Cl (stereo not shown) falls below 0.6? Thanks.
yes

In plain terms, does Cc1ccc(NC(=O)Nc2cccc(NC3=CC(=O)N(C4CCC(=O)NC4=O)C3=O)c2)cc1C (stereo not shown) come in under 0.6 for TR-FRET-IKZF2 (Normalized to CC-885)?
yes

Say whether its TR-FRET-IKZF2 (Normalized to CC-885) is strictly beneath 0.6. Entry: Cc1ccc(NC(=O)NCc2cccc(OC3=CC(=O)N(C4CCC(=O)NC4=O)C3=O)c2)cc1Cl (stereo not shown)
yes
